molecular target: human melanocortin 4 receptor (MC4R) (human, UniProt P32245 1-332); assay: cell-based or functional assay
Sequence (P32245 whole entry): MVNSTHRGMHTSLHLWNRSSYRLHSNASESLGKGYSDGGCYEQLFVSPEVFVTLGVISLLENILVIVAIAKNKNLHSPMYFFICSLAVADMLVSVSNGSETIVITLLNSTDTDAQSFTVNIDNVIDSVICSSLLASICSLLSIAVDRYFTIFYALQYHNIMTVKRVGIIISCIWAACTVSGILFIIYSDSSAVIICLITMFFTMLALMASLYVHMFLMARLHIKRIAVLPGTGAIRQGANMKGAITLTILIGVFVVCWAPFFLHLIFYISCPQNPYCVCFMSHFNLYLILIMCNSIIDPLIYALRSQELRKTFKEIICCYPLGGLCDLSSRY
Positions of bridges follow the written chain, without caps; N, C: chain ends. Non-standard residues stand in square brackets, D forms with d. Nle = CCCC[C@H](N)C(=O)O
measurement.type: Max Activation % (%)
Kindly provide the numeric value in % only, without the unit symbol.

Some solved cases for reference:
VDPWRWKVP [C9] = 5.89
IDPWRWKVP [C8] = 3.02
LPFFRWVP [B4] = 16.1
Ac-[Nle]DPFFRWK[dV][dP]-NH2 (lactam 2-8; SMILES CCCC[C@H](NC(C)=O)C(=O)N[C@H]1CC(=O)NCCCC[C@@H](C(=O)N[C@@H](C(=O)N2CCC[C@@H]2C(N)=O)C(C)C)NC(=O)[C@H](Cc2c[nH]c3ccccc23)NC(=O)[C@H](CCCNC(=N)N)NC(=O)[C@H](Cc2ccccc2)NC(=O)[C@H](Cc2ccccc2)NC(=O)[C@@H]2CCCN2C1=O) [B1] = 12.7

The record that follows has no Max Activation % shown yet.
May I ask what Max Activation % has been recorded for VPWRWVP [C6] ?
6.41
